# System: murine Th17 cells
# assay-overview: Cytokine response by in vitro-polarized murine Th17 cells stimulated with PMA/ionomycin
# Format: cell-based
# recorded-conditions: Mus musculus; PMA/ionomycin 20 h; read-out: EC50 (nM) of cytokine reduction, IL-21
Binarize EC50 at 5000 nM; below is fulfilled, at or above is not fulfilled.

Is EC50 strictly under 5000 nM for the entry CCOc1cc(C(=O)N2CCC(N3CCN(C)CC3)CC2)ccc1Nc1cc2c(cn1)N(C)C(=O)c1occc1N2C [Compound 65] ? not fulfilled

Is EC50 strictly under 5000 nM for the entry CCOc1cc(C(=O)NCC2CC2)ccc1Nc1cc2c(cn1)N(C)C(=O)c1ccccc1N2C [Compound 57] ? fulfilled

Is EC50 strictly under 5000 nM for the entry CCOc1cc(C(=O)N2CC[C@@H](N(C)C)C2)ccc1Nc1cc2c(cn1)N(C)C(=O)c1ccccc1N2C [Compound 115] ? fulfilled

Is EC50 strictly under 5000 nM for the entry CCOc1cc(C(=O)N2CCC(N3CCN(C)CC3)CC2)ccc1Nc1cc2c(cn1)N(C)C(=O)c1ccccc1N2C [Compound 61] ? fulfilled

* * *

# target-system: ERK5 (Homo sapiens)
# Construct: screened for activity against several kinases in Jurkat cells; endogenous in cells; host or cells: Jurkat cell lysate
# Sequence (Q13164 whole entry): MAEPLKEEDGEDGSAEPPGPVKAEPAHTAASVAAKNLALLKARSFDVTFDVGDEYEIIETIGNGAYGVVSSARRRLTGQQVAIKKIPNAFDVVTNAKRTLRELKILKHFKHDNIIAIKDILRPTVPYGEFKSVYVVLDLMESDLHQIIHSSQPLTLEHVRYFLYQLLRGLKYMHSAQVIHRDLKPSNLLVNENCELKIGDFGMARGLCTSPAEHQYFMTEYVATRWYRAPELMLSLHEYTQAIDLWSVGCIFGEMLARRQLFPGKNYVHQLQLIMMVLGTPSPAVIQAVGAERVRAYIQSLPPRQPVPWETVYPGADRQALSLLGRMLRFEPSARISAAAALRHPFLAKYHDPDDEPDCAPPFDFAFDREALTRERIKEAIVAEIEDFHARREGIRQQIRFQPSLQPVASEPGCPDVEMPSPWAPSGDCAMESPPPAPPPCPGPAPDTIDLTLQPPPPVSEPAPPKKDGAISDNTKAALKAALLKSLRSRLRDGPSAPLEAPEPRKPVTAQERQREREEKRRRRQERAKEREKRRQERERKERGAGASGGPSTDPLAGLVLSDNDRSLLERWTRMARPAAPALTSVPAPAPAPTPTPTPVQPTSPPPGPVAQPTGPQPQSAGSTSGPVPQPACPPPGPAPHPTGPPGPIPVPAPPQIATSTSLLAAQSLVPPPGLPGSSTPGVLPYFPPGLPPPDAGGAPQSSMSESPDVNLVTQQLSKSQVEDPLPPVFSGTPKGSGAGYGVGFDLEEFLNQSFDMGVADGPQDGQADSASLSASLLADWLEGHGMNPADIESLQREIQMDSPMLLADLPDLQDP
# assay-overview: Probe-based (AX9989 acyl phosphate ATP probe) kinase profiling in Jurkat lysate: ERK5
# Assay type: binding
# recorded-conditions: screening concentration 1 μM; read-out: ERK5 Inhibition % at indicated screening concentration
# Method: In this example, potency of the compounds as ERK5 inhibitors was assessed, and the compounds were screened for activity against several kinases in Jurkat cells. […] Kinase active site peptides were identified and quantified using LC/MS. Percent inhibition was calculated as the normalized decrease in the ESI-MS fragment intensities of probe-labeled peptides in samples incubated with the test compound compared to those without. […]
Field: inhibition at 1 µM. Provide a value for each of the compounds that follow.

Note inhibition at 1 µM for the compound shown: `CCOc1cc(C(=O)N2CCOCC2)ccc1Nc1cc2c(cn1)N(C)C(=O)c1ccccc1O2` 75 to 90%

Note inhibition at 1 µM for the compound shown: `CCOc1cc(C(=O)N2CCC(N3CC[C@H](O)C3)CC2)ccc1Nc1cc2c(cn1)N(C)C(=O)c1ccccc1N2C` > 90%

Note inhibition at 1 µM for the compound shown: `CCOc1cc(C(=O)N2CC[C@@H](N3CCN(C)CC3)C2)ccc1Nc1cc2c(cn1)N(C)C(=O)c1scnc1N2C` 50 to 75%

Note inhibition at 1 µM for the compound shown: `CCOc1cc(C(=O)N(C)[C@H]2CC[C@H](O)CC2)ccc1Nc1cc2c(cn1)N(C)C(=O)c1ccccc1N2C` > 90%

Note inhibition at 1 µM for the compound shown: `CN1CCN([C@@H]2CCN(C(=O)c3ccc(Nc4cc5c(cn4)N(C)C(=O)c4ccccc4N5C)c(OC(F)F)c3)C2)CC1` > 90%

Note inhibition at 1 µM for the compound shown: `CCOc1cc(C(=O)N2CCN(C3CCN(C)CC3)CC2)ccc1Nc1cc2c(cn1)N(C)C(=O)c1ccccc1N2S(C)(=O)=O` 50 to 75%

Note inhibition at 1 µM for the compound shown: `CCOc1cc(C(=O)N2CCN(CCN(C)C)CC2)ccc1Nc1cc2c(cn1)N(C)C(=O)c1ccccc1N2C` > 90%

* * *

# target-system: BRD4 bromodomain domain I [BRD4(1)] (Homo sapiens, UniProt O60885)
# Construct: BRD4 bromodomain domain I [BRD4(1)]
# assay-overview: BRD4 bromodomain domain 1 inhibition assay (TR-FRET)
pIC50: −log10 of the molar value.
assay-metric: pIC50

State the measured pIC50 (BRD4 bromodomain domain I [BRD4(1)] (Homo sapiens, UniProt O60885)) of COc1cccc2c1Oc1cc(N[C@H]3CC[C@H](O)CC3)ncc1N(C)C2=O [Compound T95] 5.30 to 5.70

State the measured pIC50 (BRD4 bromodomain domain I [BRD4(1)] (Homo sapiens, UniProt O60885)) of CCOc1cc(C(=O)N2CCN(C3CCN(C)CC3)CC2)ccc1Nc1cc2c(cn1)N(C)C(=O)c1cccc(Cl)c1N2C [Compound T126] < 5.30

State the measured pIC50 (BRD4 bromodomain domain I [BRD4(1)] (Homo sapiens, UniProt O60885)) of CN1C(=O)c2ccccc2Oc2cc(N[C@H]3CC[C@H](O)CC3)ncc21 [Compound T117] < 5.30

State the measured pIC50 (BRD4 bromodomain domain I [BRD4(1)] (Homo sapiens, UniProt O60885)) of CN1C(=O)c2cccc(Cl)c2N(C)c2cc(N[C@H]3CC[C@H](O)CC3)ncc21 [Compound T120] < 5.30

State the measured pIC50 (BRD4 bromodomain domain I [BRD4(1)] (Homo sapiens, UniProt O60885)) of CCOc1cc(C(=O)N[C@H]2CC[C@H](O)CC2)ccc1Nc1cc2c(cn1)N(C)C(=O)c1ccccc1O2 [Compound T89] < 5.30

State the measured pIC50 (BRD4 bromodomain domain I [BRD4(1)] (Homo sapiens, UniProt O60885)) of CN1C(=O)c2ccccc2N(C)c2cc(N[C@H]3CC[C@@H](O)CC3)ncc21 [Compound T114] < 5.30

State the measured pIC50 (BRD4 bromodomain domain I [BRD4(1)] (Homo sapiens, UniProt O60885)) of CCOc1cc(C(=O)N2CCN(C3CCN(C)CC3)CC2)ccc1Nc1cc2c(cn1)N(C)C(=O)c1ccccc1O2 [Compound T98] 5.30 to 5.70
